molecular target: Voltage-gated inwardly rectifying potassium channel KCNH2 (Homo sapiens) (UniProt Q12809); assay: hERG rescue from dofetilide block, primary screen, cell-based, CHO-hERG, FluxOR thallium flux, dofetilide IC70 (AID 1511); details: dofetilide IC70 present, at 10 µM, hits give high values;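 further: thallium influx through hERG after potassium depolarization seen as dye fluorescence rise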
Sequence (Q12809 whole entry, looked up): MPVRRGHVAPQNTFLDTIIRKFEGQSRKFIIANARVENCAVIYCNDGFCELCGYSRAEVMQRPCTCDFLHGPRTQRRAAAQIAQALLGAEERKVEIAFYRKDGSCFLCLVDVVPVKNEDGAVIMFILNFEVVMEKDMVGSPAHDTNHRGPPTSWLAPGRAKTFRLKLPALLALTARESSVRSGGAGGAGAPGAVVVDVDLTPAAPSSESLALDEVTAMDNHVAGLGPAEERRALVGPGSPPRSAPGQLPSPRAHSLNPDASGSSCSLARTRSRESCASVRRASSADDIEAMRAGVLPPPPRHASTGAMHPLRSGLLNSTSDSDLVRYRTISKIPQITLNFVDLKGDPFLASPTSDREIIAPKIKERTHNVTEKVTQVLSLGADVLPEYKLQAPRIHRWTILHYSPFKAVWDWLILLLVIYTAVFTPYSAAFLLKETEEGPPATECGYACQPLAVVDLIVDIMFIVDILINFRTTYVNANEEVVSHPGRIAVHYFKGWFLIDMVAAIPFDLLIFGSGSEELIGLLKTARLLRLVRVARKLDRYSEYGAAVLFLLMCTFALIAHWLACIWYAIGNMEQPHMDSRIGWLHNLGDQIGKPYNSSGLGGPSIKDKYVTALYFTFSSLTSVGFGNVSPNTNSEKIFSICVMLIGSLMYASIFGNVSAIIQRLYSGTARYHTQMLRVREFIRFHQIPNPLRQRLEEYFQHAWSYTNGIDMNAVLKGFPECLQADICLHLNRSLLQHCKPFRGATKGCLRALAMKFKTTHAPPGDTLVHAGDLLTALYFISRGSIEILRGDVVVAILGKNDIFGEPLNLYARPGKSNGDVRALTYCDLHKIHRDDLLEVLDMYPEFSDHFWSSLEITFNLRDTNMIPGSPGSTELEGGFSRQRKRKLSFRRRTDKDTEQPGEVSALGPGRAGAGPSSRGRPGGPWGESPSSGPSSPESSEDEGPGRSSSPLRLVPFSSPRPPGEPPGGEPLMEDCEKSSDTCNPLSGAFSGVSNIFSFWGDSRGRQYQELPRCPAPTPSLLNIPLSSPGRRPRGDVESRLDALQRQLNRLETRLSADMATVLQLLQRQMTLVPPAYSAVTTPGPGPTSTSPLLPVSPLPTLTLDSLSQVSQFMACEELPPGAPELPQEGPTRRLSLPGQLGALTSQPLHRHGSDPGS
Out of some 310,000 compounds screened, about 1,600 (0.52%) were called active. Shown is part of a subset that was picked to be rich in actives. Square brackets hold non-standard residues; d marks the D form. Peptide text beside a SMILES is read from it. ξ: configuration not given here. ξM = CSCCC(N)C(=O)O
The entries below are paired with their reported activation (rescue from dofetilide block), less the hit threshold.
VALUE_KIND: activation (rescue from dofetilide block), less the hit threshold (%)

> print(dat)
                                    molecule  recorded.measurement
 1  CS(=O)(=O)N(Cc1nc2sc3c(c2c(=O)[nH]1)CCCC3)C1CCCCC1                 -10.9
 2           C=CCNC(=S)NNC(=O)c1cc(Cl)ccc1OC                 -3.41
 3  CN(CCc1cn[nH]c1)C(=O)CC1C(=O)NCCN1Cc1cccc(Oc2ccccc2)c1 (stereo unspecified)                 -5.68
 4  O=C(CN1CCN(S(=O)(=O)c2cc(Cl)ccc2Cl)CC1)c1ccc(O)c(O)c1                 -1.99
 5           N#CC1=C(N)N(c2ccc(F)cc2)C(=O)C1                  3.49
 6          CCc1ccc(NC(=O)COC(=O)c2cccs2)cc1                 -2.35
 7  CC(C)C(=O)Nc1ccc(C(=O)NNC(=O)c2cccs2)cc1                 -4.59
 8  CCC(C(=O)N1CCOCC1)n1c(C(=O)OC)cc2occc21 (stereo unspecified)                 -6.73
 9  Cc1onc(-c2ccc(Cl)cc2)c1-c1ccnn1S(=O)(=O)c1ccc(Cl)cc1                 -7.23
10          O=C(NC(=S)NC1CCCCC1)c1ccc(Cl)cc1                 -1.76
11           CCc1nc2sc3c(Cl)ncnc3c2c2c1CCCC2                 -13.4
12      COC(=O)c1sc(NC(=O)c2csc3c2CCCC3)nc1C                 -6.43
13  CC(=O)N1CCc2cc(Br)cc(S(=O)(=O)CCC(=O)Nc3c(C)n(C)n(-c4ccccc4)c3=O)c21                   -18
14  COC(=O)c1sc(NC(=S)NC(=O)c2ccc(C)cc2)nc1C                  7.72
15             CC(C)c1nc2ccc(C(=O)O)cc2[nH]1                 -0.43
16         Cc1cc(C(=O)NCCc2ccc(Cl)cc2)c(C)o1                 -9.03
17  COC(=O)CNC(=O)C(CCSC)NC(C)=O (stereo unspecified) (Ac-[ξM]-Gly-OMe)                 -1.31
18  CN(c1ccccc1)S(=O)(=O)c1ccc(Cl)c(C(=O)OCC(=O)N2CCOCC2)c1                  4.51
19  CC1(OC(=O)C2CCCC2)C(=O)C=C2C=C(c3ccc(C#N)cc3)OC=C2C1=O (stereo unspecified)                  7.34
20  O=C(C1CCCN1S(=O)(=O)c1ccc(Br)cc1)N1CCOCC1 (stereo unspecified)                 -0.78
21                 Cc1nc2ccc(C(=O)O)cc2[nH]1                  6.97
22  O=c1[nH]c(/C=C\c2cccc(C(F)(F)F)c2)nc(O)c1[N+](=O)[O-]                 -0.14
23  Cc1ccc(S(=O)(=O)c2c[nH]c3ccc(C)cc3c2=O)cc1                 -9.36
24        O=C1CCN(CCc2ccccc2)CCN1CCOc1ccccc1                 -5.23
25  Cc1n[nH]c(=O)c2c(NC(=O)COC(=O)c3ncc(Cl)c(Cl)c3Cl)oc(C)c12                 -12.6
26          Cc1ccc(C(=O)NC(=S)Nc2ccccc2C)cc1                  -5.4
27  O=C(OCC(=O)N1CCN(C(=O)c2ccco2)CC1)c1cccc(O)c1                    -4
28          N#Cc1cccc(CN2CCC(=O)N(CCO)CC2)c1                  1.97
29  Cc1ccn(C(CC(=O)c2ccc(Br)cc2)C(=O)O)n1 (stereo unspecified)                     5
30       Cc1nn(-c2cc(Cl)ccc2N)c(=O)c2ccccc12                  7.47
31        O=C(/C=C/c1ccco1)NC(=S)Nc1ccccc1Br                  0.92
32  Cc1cc2c(cc1S(=O)(=O)NCc1ccc(Cl)cc1)OCC(=O)N2                 -9.71
33        Cc1cccc(C(=O)NC(=S)N(C)C2CCCCC2)c1                  11.6
34          COc1nc(NC2CCCCC2)nc(N2CCCCCC2)n1                 -7.83
35    Cc1cccc(NC(=S)NCCN(C2CCCCC2)C2CCCC2)c1                 -7.92
36  CCOC(=O)/C=C/C(=O)OCC(=O)NC(c1ccccc1)c1ccccc1                 -0.47
37              COc1ccc2oc(N)c(C=O)c(=O)c2c1                 -3.18
38  COC(=O)[C@H](CC(C)C)NC(=O)N1CCCCC1C (stereo partly specified)                 -7.74
39  O=C(O)c1ccc(Cn2c(=S)[nH]c3cc(Cl)ccc3c2=O)cc1                 -3.87
40           O=C(NNC(=S)NC1CCCCC1)c1ccccc1Cl                 -19.3
41  C=CCC1=C/C(=C\c2c(N)n3nc(CC(=O)N4CCOCC4)sc3nc2=O)C=C(OC)C1=O                 -8.72
42    NC(=O)COc1ccc(C23CC4CC(CC(C4)C2)C3)cc1                 -4.82
43  CC(C)C(NC(=O)c1ccc(Cl)cc1)C(=O)O (stereo unspecified)                 -8.13
44     CCc1ccc(NC(=O)C(=O)NNC(=O)c2cccs2)cc1                  46.7
45  CCc1cc2c(=O)c(-c3ccc(F)cc3)c(C(F)(F)F)oc2cc1OCC(=O)O                 -11.1
46  O=S(=O)(Nc1ccc2nc(-c3ccco3)[nH]c2c1)c1ccccc1                 -13.3

# credit: PubChem BioAssay AID1511
